# System: HCT-15 colon
# Assay method text: NCI-60 one-dose screen, 48 h (100 = growth as untreated, 0 = no growth, -100 = all killed)
# Condition context: 10 µM unless noted
About 83,000 compounds went through this panel and 20% of them were active in at least one assay; those are over-represented in the sample as a whole.
Result type: growth (%)
Give just the numeric value; % need not be written.

Example entries begin here.
{"Compound": "Cc1c(O)c(=O)n(-c2ccccc2)n1C", "growth, %": 92.7}
{"Compound": "COc1ccc(/C=C2\\CCCC3=C2N=C2SC(C)=NN2C3c2ccc(OC)c(OC)c2)cc1OC (configuration not stated)", "growth, %": 28.3}
{"Compound": "CCCCn1c(C)nc2cc(Nc3nc(Cl)nc4nc[nH]c34)ccc21", "growth, %": 90.7}

stdin: So what growth did O=C(Nc1ccc(OS(=O)(=O)c2ccc(F)cc2)cc1)C12CC3CC(CC(C3)C1)C2 get with HCT-15 colon?
stdout: 42.3

stdin: Report growth for COc1ccc2[nH]c(O)c(/C=c3/ccc4c(c3)N=C(c3ccc(F)cc3)N=4)c2c1 tested on HCT-15 colon.
stdout: 50.1

stdin: Return growth measured with HCT-15 colon given this compound: COc1ccc(-c2[nH]nc(N)c2-c2cc(OC)c(OC)c(OC)c2)cc1
stdout: 10.1

stdin: Please state recorded growth (tested on HCT-15 colon) of COc1ccccc1NC(=O)OCC12COCN1COC2
stdout: 97.2

stdin: Which growth is reported with HCT-15 colon for this entry: COc1cc(C2CC(c3cccc(Nc4ccnc5cc(Cl)ccc45)c3)=NN2c2ccccc2)cc(OC)c1OC (configuration not stated) ?
stdout: 67.1

stdin: Query growth on HCT-15 colon for COc1ccc(-c2n[nH]nc2-c2cc(OC)c3c(c2)OCO3)cc1
stdout: 6.08

stdin: Request: growth, test system HCT-15 colon, entry c1ccc2c(c1)cnc1ccccc12
stdout: 98.4

stdin: Field: growth (HCT-15 colon). Entry: c1ccc(C(CC2=NCCCN2)c2ccccc2)cc1
stdout: 114

stdin: Record lookup: for HCT-15 colon, what growth belongs to CCCCn1c(C)nc2ccc(Nc3nc(Cl)nc4nc[nH]c34)cc21 ?
stdout: 82.6

stdin: Checklist item: growth tested on HCT-15 colon, entry CN1CCN(Cc2ccc(NC(=O)c3cnc(F)c(C#Cc4cnc(N)c5ncccc45)c3)cc2C(F)(F)F)CC1 , value?
stdout: 14.9

stdin: Form entry - test system: HCT-15 colon; read-out: growth; compound: O=C(/C=C/c1ccccc1)n1c(-c2ccccc2)nc2ccccc21
stdout: 98.2

stdin: Tell me reported growth for O=c1cc(N2CCOCC2)oc2c(-c3ccc4c(c3)OCCO4)csc12 , tested with HCT-15 colon.
stdout: 16.9

stdin: For the record Cc1ccc(O)c(Cc2ccccc2)c1 , what value of growth is listed for HCT-15 colon?
stdout: 107

stdin: Checklist item: growth tested on HCT-15 colon, entry Cc1cc(C)c2c(NC(=O)Nc3ccc(Cl)c(Cl)c3)n[nH]c2n1 , value?
stdout: 100

stdin: Under HCT-15 colon: growth value of CCCCCCCCCCCCCCCc1cc(O)ccc1[N+](=O)[O-] ?
stdout: 73.7

stdin: growth of CCC1CCc2nc3sc(C(=O)Nc4cccc(F)c4)c(N)c3cc2C1 (configuration not stated) on HCT-15 colon?
stdout: 31.7
